// provenance: ChEMBL document CHEMBL3616390

Provide the reported bioavailability of each item.
test: Oral bioavailability in rat; assay type: ADME, organism-based; conditions: in vivo
Numbers only, in %.

C/C(=N\c1ccc2c(c1)[C@@H](NC(=O)c1ccc(-c3ccccc3)cc1)[C@H](O)C2)N(C)Cc1ccc(F)cc1 :: 32

q: Need bioavailability of "CN1CCCC/C1=N\c1ccc2c(c1)[C@@H](NC(=O)c1ccc(Br)cc1)[C@H](O)C2" , thanks.
a: 68

###

test system: Rattus norvegicus; assay: AUC (0 to 8 hrs) in rat at 10 mg/kg, po; assay type: ADME, organism-based; set-up: time < 8 hr, dose 10 mg/kg, route oral; settings: in vivo
MEASURED_ENDPOINT: AUC (ng·h/g)
One number for each entry, in ng·h/g.

These solved cases illustrate the format of a correct answer.
CN1CCCC/C1=N\c1ccc2c(c1)[C@@H](NC(=O)c1ccc(Br)cc1)[C@H](O)C2 :: 506
C/C(=N\c1ccc2c(c1)[C@@H](NC(=O)c1ccc(Br)cc1)[C@H](O)C2)N(C)c1ccc(F)cc1 :: 4681
C/C(=N\c1ccc2c(c1)[C@@H](NC(=O)c1ccc(Br)cc1)[C@H](O)C2)Nc1ccc(F)cc1 :: 1369

Turning to the following molecule.
q: I'd like to know its AUC. The molecule in question is "C/C(=N\c1ccc2c(c1)[C@@H](NC(=O)c1ccc(Br)cc1)[C@H](O)C2)NCc1ccc(F)cc1"
a: 634
